Test: Toxicity liver stage against HepG2, at 10uM
Format: cell-based
Set-up: test concentration 10 uM, cell line HepG2-A16-CD81EGFP
Details: human, HepG2-A16-CD81EGFP cells; read-out: INHIBITION
experimental endpoint: cytotoxicity at 10 µM (%)

- molecule: "CC(O)CN1CCC(CNCc2ccc(C#N)cc2)CC1 (centres undefined)"
  result unit: "%"
  assay result: 8.83
- molecule: "CCn1c(CN(C)CC(F)(F)F)nc2c(F)cccc21"
  result unit: "%"
  assay result: -5.35
- molecule: "O[C@@]1(CNCC2(Cn3cccn3)CC2)CCCN2CCCC[C@@H]21"
  result unit: "%"
  assay result: 4.13
- molecule: "Cc1cc(C)n(Cc2cc(C(=O)N[C@H]3CCCCNC3=O)n[nH]2)n1"
  result unit: "%"
  assay result: 5.97
